# System: human embryonic kidney (HEK-293) cells
# test.summary: Cytotoxicity against HEK-293 cells
# Type: cell-based
# assay.context: Homo sapiens, HEK293, percentage survival, three independent trials
# key: entry, value: IC50
# value in µM; strip the unit string

Here's what some known entries look like.
| compound | scale.unit | IC50 |
| --- | --- | --- |
| CCCCCCCCCCN1CCOCCOCCN(CCCCCCCCCC)CCOCCOCC1 [C10LE (1), N,N′-Di-n-decyl-4-13-diaza-18-crown-6] | µM | 13 |
| CCCCCCCCCCCC[N+]1(C)CCOCCOCC[N+](C)(CCCCCCCCCCCC)CCOCCOCC1 (stereo not drawn) [C12LE•2MeI (6)] | µM | 11 |

Pending compound:
# return recorded IC50 for entry CCCCCCCCCC[N+]1(C)CCOCCOCC[N+](C)(CCCCCCCCCC)CCOCCOCC1 (stereo not drawn) [C10LE•2MeI (3)]
36

Provenance of the data: paper PMC10603992
